Assay: in vitro
Conditions: male, Sprague-Dawley, rat, s9, 1 h, 1 μM
reported endpoint: % Remaining of Initial (n = 1), 60 min

[[record]]
molecule = "CCCCCCCCCCCCCCCC(=O)NCCOC(=O)CCC(=O)OCC(O)CO (stereo not drawn) [Compound I-9]"
reported_endpoint = "% Remaining of Initial (n = 1), 60 min"
result = "<1.0%"

[[record]]
molecule = "CCCCCCCCCCCCCCCC(=O)NCCOC(=O)CCC(=O)OCC(COC(=O)CCC)OC(=O)CCC (stereo not drawn) [Compound I-11]"
reported_endpoint = "% Remaining of Initial (n = 1), 60 min"
result = "<1.0%"

[[record]]
molecule = "CCCCCCCCCCCCCCCC(=O)NCCOC(=O)CCC [Compound I-2]"
reported_endpoint = "% Remaining of Initial (n = 1), 60 min"
result = "<1.0%"

